This section presents compounds with their documented drug sensitivity score values.
Test system: HOSE2C
MEASUREMENT_NOTES: drug sensitivity score (DSS) from 5-point dose-response viability curve (DSS (area-under-curve based score)); higher = more sensitive (stronger growth inhibition or killing); extreme values may be limits of the assay
RUN_CONDITIONS: exposure time: 72 h; concentration range: 5 concentrations over 10,000-fold range

COMPOUND	SYSTEM	drug sensitivity score
O=c1sn(-c2cccc3ccccc23)c(=O)n1Cc1ccccc1 [Tideglusib]	HOSE2C	0
Nc1cccc2c1CN(C1CCC(=O)NC1=O)C2=O (stereo not given) [Lenalidomide]	HOSE2C	0
Nc1nc(Cl)nc2c1ncn2[C@H]1C[C@H](O)[C@@H](CO)O1 [Cladribine]	HOSE2C	0
CC[C@@H]1C(=O)N(C)c2cnc(Nc3ccc(C(=O)N[C@H]4CC[C@H](N5CCN(CC6CC6)CC5)CC4)cc3OC)nc2N1C(C)C [Volasertib]	HOSE2C	6.3
C=CC(=O)N1CCC[C@@H](n2nc(-c3ccc(Oc4ccccc4)cc3)c3c(N)ncnc32)C1 [Ibrutinib]	HOSE2C	0
CNC(=O)c1ccc(N2C(=S)N(c3cnc(C#N)c(C(F)(F)F)c3)C(=O)C23CCC3)cc1F [Apalutamide]	HOSE2C	0
CC(C)(O)CNc1nc(Nc2ccnc(C(F)(F)F)c2)nc(-c2cccc(C(F)(F)F)n2)n1 [Enasidenib]	HOSE2C	0
CC(C)(C)c1cc(NC(=O)Nc2ccc(Oc3ccnc4[nH]c(=O)cnc34)cc2F)n(-c2ccccc2)n1	HOSE2C	12.8
CO[C@H](C(=O)[C@@H](O)[C@@H](C)O)[C@@H]1Cc2cc3cc(O[C@H]4C[C@@H](O[C@@H]5C[C@@H](O)[C@H](O)[C@@H](C)O5)[C@H](O)[C@@H](C)O4)c(C)c(O)c3c(O)c2C(=O)[C@H]1O[C@H]1C[C@@H](O[C@@H]2C[C@@H](O)[C@@H](O[C@@H]3C[C@](C)(O)[C@H](O)[C@@H](C)O3)[C@@H](C)O2)[C@H](O)[C@@H](C)O1 [Plicamycin]	HOSE2C	0
NC[C@@](O)(c1ccc(Cl)cc1)c1ccc(-c2cn[nH]c2)cc1	HOSE2C	6.1
CNS(=O)(=O)Nc1nccc(Cc2c(C)c3ccc(Oc4ncccn4)cc3oc2=O)c1F	HOSE2C	0
O=C(O)c1ccc(O)c2ncccc12 [IOX-1]	HOSE2C	3.4
COc1cc(C(=O)O)ccc1NC(=O)[C@@H]1N[C@@H](CC(C)(C)C)[C@](C#N)(c2ccc(Cl)cc2F)[C@H]1c1cccc(Cl)c1F [Idasanutlin]	HOSE2C	10.5
CNC(=O)CN1CCC(Oc2cc3c(Nc4cccc(Cl)c4F)ncnc3cc2OC)CC1 [Sapitinib]	HOSE2C	0
CC/C(=C(\c1ccccc1)c1ccc(OCCN(C)C)cc1)c1ccccc1 [Tamoxifen]	HOSE2C	1.3
